measured.on: T1, recombinant human CD3 epsilon/gamma heterodimer (human, UniProt P07766 23-126; P09693 23-116)
T1 construct: Recombinant heterodimer used as analyte in Octet; also called hCD3 E/G
measurement.notes: BLI (Octet), mAb 5 ug/mL on FAB2G sensor, hCD3 E/G 200-50 nM;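 also: antibodies purified from hybridoma supernatants, measured by Octet binding to recombinant human CD3 protein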
Kindly supply the reported pKd values for the records listed here.
Note: pKd values are expressed as the negative base-10 logarithm of concentration in M.

The reported value for ABL-CD3-74 (antibody, V domains shown, mAb purified from hybridoma; chimeric AlivaMab IgG (human VH, CH1 and upper hinge; mouse middle hinge, CH2, CH3; human light chain)) VH: EVQLVESGGGLVKPGGSLRLSCAASGFTFSSYSMKWVRQAPGKGLEWVSSISSSSSYIYYADSVKGRFTISRDNAKNSLYLQMNSLRAEDTAVYYCARDRGELTLWYWGQGTLVTVSS VL: SYELTQPPSVSVSPGQTARITCSGDALPKKYAYWYQQKSGQAPVLVIYEDSKRPSGIPERFSGSSSGTMATLTISGAQVEDEADYYCYSTDSSGNHWVFGGGTKLTVL in terms of pKd is 6.91

Measured pKd of ABL-CD3-73 (antibody, V domains shown, mAb purified from hybridoma; chimeric AlivaMab IgG (human VH, CH1 and upper hinge; mouse middle hinge, CH2, CH3; human light chain)) VH: EVQLVESGGGLVKPGGSLRLSCAASGFTITSYSMNWVRQAPGKGLEWVSTFSRSSTYIYYADSVKGRFTISRDNAKNSLYLQMNSLRAEDTAVYYCAREKWDLLYFDYWGQGTLVTVSS VL: NFMLTQPHSVSESPGKTVTISCTRSSGSIASNYVQWYQQRPGSSPTTVIYEDNRRPSGVPDRFSGSIDSSSNSASLTISGLKTEDEADYYCQSYDNSNRVFGGGTTLTVL : 8.21

For reference, reported pKd for ABL-CD3-69 (antibody, V domains shown, mAb purified from hybridoma; chimeric AlivaMab IgG (human VH, CH1 and upper hinge; mouse middle hinge, CH2, CH3; human light chain)) VH: EVQLVESGGGLVKPGGSLRLSCAASGFTFSTYTMNWVRQAPGKGLEWVSTITSSSRYIYYADSVKGRFTISRDNAKNSLYLQMNSLRAEDTAVYYCARVTFDAFDIWGQGTMVTVSS VL: NFMLTQPHSVSESPGKTVTISCTRSSGSIASNYVQWYQQRPGSSPTTVIYEDNQRPSGVPDRFSGSIDSSSNSASLTISGLKTEDEADYYCQSYDSSNRVFGGGTKLTVL stands at 8.43

# pKd of ABL-CD3-76 (antibody, V domains shown, mAb purified from hybridoma; chimeric AlivaMab IgG (human VH, CH1 and upper hinge; mouse middle hinge, CH2, CH3; human light chain)) VH: EVQLVESGGGLVKPGGSLRLSCAASGFTFSNYYMNWVRQAPGKGLERVSSISSSSNYIYYADSVKGRFTISRDNAKNSLYLQMNSLRAEDTAVYYCARDRRELPLDYWGQGTVVTVSS VL: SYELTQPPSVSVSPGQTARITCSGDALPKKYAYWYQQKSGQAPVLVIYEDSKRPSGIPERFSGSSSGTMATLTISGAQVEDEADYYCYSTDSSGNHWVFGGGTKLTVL = 6.87

Briefly, pKd measured for ABL-CD3-80 (antibody, V domains shown, mAb purified from hybridoma; chimeric AlivaMab IgG (human VH, CH1 and upper hinge; mouse middle hinge, CH2, CH3; human light chain)) VH: EVQLVESGGGLVKPGGSLRLSCAASGFTFSGYSMNWVRQAPGKGLEWVSSISSRSRYIYYADSVQGRFTISRDNSKNSLFLQMNSLRAEDTAVYYCGRDWRELLLDYWGQGTLVTVSS VL: SYELTQPPSVSVSPGQTARITCSGDALPKKYAYWYQQKSGQAPVLVIYEDSKRPSGIPERFSGSSSGTMATLTISGAQVEDEADYYCYSTDSSGNHSWVFGGGTKLTVL : 6.83
